Compiled notes: published pIC50 values involving UniProt P10635.
Sequence (P10635 whole entry): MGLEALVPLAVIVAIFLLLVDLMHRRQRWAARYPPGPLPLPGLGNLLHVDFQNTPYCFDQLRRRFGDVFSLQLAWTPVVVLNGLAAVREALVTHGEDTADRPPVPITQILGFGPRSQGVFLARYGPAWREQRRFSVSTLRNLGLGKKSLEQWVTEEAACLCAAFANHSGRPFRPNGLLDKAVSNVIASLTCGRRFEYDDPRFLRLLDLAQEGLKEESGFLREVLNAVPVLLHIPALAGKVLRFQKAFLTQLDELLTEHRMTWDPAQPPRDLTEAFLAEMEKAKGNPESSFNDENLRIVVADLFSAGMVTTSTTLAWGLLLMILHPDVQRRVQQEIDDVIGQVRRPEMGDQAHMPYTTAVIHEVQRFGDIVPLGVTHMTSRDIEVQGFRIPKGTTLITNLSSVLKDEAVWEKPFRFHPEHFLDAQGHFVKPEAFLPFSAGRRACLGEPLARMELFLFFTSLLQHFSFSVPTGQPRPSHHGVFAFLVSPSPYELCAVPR
pIC50: −log10 of the molar value.

Ask | I'd like to know its pIC50. The compound in question is `Cn1cc(-c2ccc(F)c(C(F)(F)F)c2)nc1C1CCN(c2ncnc(N)c2-c2ccc(F)cc2)CC1`
Reply | < 4.70

Ask | Please give the result for Cc1ccc2c(c1)C(C(C)C)N(C(=O)CNCC1(O)CCCCC1)CC2 (stereo not given) too.
Reply | > 6.11

Ask | Please give the result for C[C@@H]1CN(c2ccc(S(C)(=O)=O)cc2)CCN1c1nccc(C(=O)NC2C3CC4CC2CC(O)(C4)C3)n1 (stereo not given in full) too.
Reply | < 5.00

***
Ask | I'd like to know its pIC50. The compound in question is `COc1ccc(Br)cc1-c1csc(Nc2ccc(-n3ccnc3)c(OC)c2)n1`
Reply | > 6.30

Ask | Please give the result for `Cc1cc(C(=O)Nc2nc3cccc(C)c3n2[C@@H]2CCCCN(C(=O)/C=C/CN(C)C)C2)ccn1` too.
Reply | < 4.60

Ask | Please give the result for `CC(C)Nc1nc2c(nc1N1CCC(Oc3ccc(F)cc3F)CC1)CCN(C)C2` too.
Reply | < 5.00

Ask | Please give the result for `NCC#Cc1cnccc1-c1cncnc1` too.
Reply | < 4.60

Ask | Please give the result for `CC(C)C(=O)N1CCC(c2ccc(C(=O)NC(=N)N)cc2C(F)(F)F)CC1` too.
Reply | < 4.52

Ask | Please give the result for `O=C(O)CCCn1nnc(-c2ccc(Oc3ccc(Cl)cc3)cc2)n1` too.
Reply | < 4.70

Ask | Please give the result for `CC(C)c1noc(C2CCN(c3ncnc4c(-c5ccc(S(C)(=O)=O)cc5)csc34)CC2)n1` too.
Reply | < 4.30
